Target: T1, zCON9_D
T1 chain: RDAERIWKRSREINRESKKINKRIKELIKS
Experiment: two-hybrid library CCmax;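 note: natural log of median RNA to DNA barcode read ratio; higher means stronger binding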
Conditions: mean of both orientations
# maps each entry to its interaction score

Illustrative cases are given below, each with its answer.
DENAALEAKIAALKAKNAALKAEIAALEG [4H1401-AA]
-1.37
DENAALEAKNAALKAEIAALEAEIAALEG [P9-AA]
-1.94
DKIAALKAKIAALKAENAALEAENAALEG [P4-AA]
-3.43

Here's the next entry for you.
input: Field request: interaction score | item: EEARKILEDIERISERIEEISDRIERLLRS [zCON9_B]
output: -1.44
